These measurements were taken from PubChem BioAssay AID1745844.

system: rodent lifetime carcinogenesis bioassay, tumor incidence TD50; assay: carcinogenic potency in animals, long-term in vivo studies, CPDB compilation (AID 1745844); settings: rat; strain Sprague-Dawley; females; in feed; site: pancreas; lesion: hemangioendothelial sarcoma; dosed 40 weeks; study length 59 weeks
MEASURED_ATTRIBUTE: TD50

[[record]]
structure_smiles = "CC(=O)Nc1nnc(-c2ccc([N+](=O)[O-])o2)s1"
reported = "81.6 mg/kg/day"


====

tested on: rodent lifetime carcinogenesis bioassay, tumor incidence TD50; assay: carcinogenic potency in animals, long-term in vivo studies, CPDB compilation (AID 1745844); settings: rat; strain AP Alderly Park; males; in feed; site: liver; lesion: hepatoma; dosed 104 weeks; study length 104 weeks
Calls of active or inactive are those of the source. The rule behind the calls is not given here.
MEASURED_ATTRIBUTE: TD50

[[record]]
molecule = "O=CC(O)C(O)C(O)C(O)CO (stereo unspecified)"
reported = "133000 mg/kg/day (inactive)"


====

tested on: rodent lifetime carcinogenesis bioassay, tumor incidence TD50; assay: carcinogenic potency in animals, long-term in vivo studies, CPDB compilation (AID 1745844); conditions: mouse; strain B6C3F1; males; by gavage; site: Harderian gland; lesion: adenoma; dosed 90 weeks; study length 104 weeks
MEASURED_ATTRIBUTE: TD50

[[record]]
structure_smiles = "ClCC(Cl)CCl"
reported = "13.7 mg/kg/day"


====

tested on: rodent lifetime carcinogenesis bioassay, tumor incidence TD50; assay: carcinogenic potency in animals, long-term in vivo studies, CPDB compilation (AID 1745844); conditions: mouse; strain Charles River CD1; females; in drinking water; site: liver; lesion: hepatocellular carcinoma; dosed 104 weeks; study length 104 weeks
MEASURED_ATTRIBUTE: TD50 (mg/kg/day)

[[record]]
structure_smiles = "CN(C)N"
target_system = "rodent lifetime carcinogenesis bioassay, tumor incidence TD50"
measured_attribute = "TD50"
reported = 340


====

tested on: rodent lifetime carcinogenesis bioassay, tumor incidence TD50; test: carcinogenic potency in animals, long-term in vivo studies, CPDB compilation (AID 1745844); conditions: rat; strain Fischer 344; females; by gavage; site: liver; lesion: hepatocellular adenoma + hepatocellular carcinoma + neoplastic nodule; dosed 104 weeks; study length 105 weeks
Listed next: entries and their corresponding TD50.
MEASURED_ATTRIBUTE: TD50 (mg/kg/day)

[[record]]
compound = "ClC(Br)Br"
target_system = "rodent lifetime carcinogenesis bioassay, tumor incidence TD50"
reported = 591

[[record]]
compound = "CCCC(Cl)CCCC(Cl)CCC(Cl)CCC(Cl)CCC(Cl)CCCC(Cl)CCC (configuration not stated)"
target_system = "rodent lifetime carcinogenesis bioassay, tumor incidence TD50"
reported = 1140


====

test system: rodent lifetime carcinogenesis bioassay, tumor incidence TD50; experiment: carcinogenic potency in animals, long-term in vivo studies, CPDB compilation (AID 1745844); settings: rat; strain Wistar; males; in feed; site: liver; lesion: hepatocellular carcinoma; dosed 47 weeks; study length 104 weeks
MEASURED_ATTRIBUTE: TD50

[[record]]
structure_smiles = "O=[N+]([O-])c1ccc2c(c1)Cc1ccccc1-2"
measured_attribute = "TD50"
reported = "2.1 mg/kg/day"


====

test system: rodent lifetime carcinogenesis bioassay, tumor incidence TD50; test: carcinogenic potency in animals, long-term in vivo studies, CPDB compilation (AID 1745844); settings: rat; strain Sprague-Dawley; females; by gavage; site: kidney; lesion: nephroblastoma; dosed 52 weeks; study length 127 weeks
MEASURED_ATTRIBUTE: TD50

[[record]]
structure_smiles = "C=CCl"
measured_attribute = "TD50"
reported = "182 mg/kg/day"


====

test system: rodent lifetime carcinogenesis bioassay, tumor incidence TD50; test: carcinogenic potency in animals, long-term in vivo studies, CPDB compilation (AID 1745844); conditions: rat; strain Fischer 344; males; by gavage; site: urinary bladder; lesion: transitional-cell carcinoma; dosed 30 weeks; study length 108 weeks
MEASURED_ATTRIBUTE: TD50

[[record]]
structure_smiles = "CCCCN(CCCC)N=O"
reported = "1.47 mg/kg/day"


====

tested on: rodent lifetime carcinogenesis bioassay, tumor incidence TD50; assay: carcinogenic potency in animals, long-term in vivo studies, CPDB compilation (AID 1745844); conditions: rat; strain Charles River CD (Sprague-Dawley); females; in feed; site: liver; lesion: several types; types named in the paper; dosed 104 weeks; study length 104 weeks
Listed next: entries and their corresponding TD50.
MEASURED_ATTRIBUTE: TD50

[[record]]
structure_smiles = "O=P(OC(CCl)CCl)(OC(CCl)CCl)OC(CCl)CCl"
target_system = "rodent lifetime carcinogenesis bioassay, tumor incidence TD50"
reported = "206 mg/kg/day"

[[record]]
structure_smiles = "O=[N+]([O-])OCC(CO[N+](=O)[O-])O[N+](=O)[O-]"
target_system = "rodent lifetime carcinogenesis bioassay, tumor incidence TD50"
reported = "329 mg/kg/day"


====

tested on: rodent lifetime carcinogenesis bioassay, tumor incidence TD50; test: carcinogenic potency in animals, long-term in vivo studies, CPDB compilation (AID 1745844); details: rat; strain Fischer 344; males; in drinking water; site: liver; lesion: hemangiosarcoma; dosed 30 weeks; study length 100 weeks
MEASURED_ATTRIBUTE: TD50 (mg/kg/day)

[[record]]
structure_smiles = "CN=[N+](C)[O-]"
target_system = "rodent lifetime carcinogenesis bioassay, tumor incidence TD50"
reported = 0.982


====

Listed next: entries and their corresponding TD50.
system: rodent lifetime carcinogenesis bioassay, tumor incidence TD50; experiment: carcinogenic potency in animals, long-term in vivo studies, CPDB compilation (AID 1745844); settings: rat; strain Fischer 344; males; in drinking water; site: liver; lesion: several types; types named in the paper; dosed 104 weeks; study length 128 weeks
MEASURED_ATTRIBUTE: TD50 (mg/kg/day)

[[record]]
structure_smiles = "O=NO"
reported = 946

[[record]]
structure_smiles = "C=C/C=N/O"
reported = 30.4


====

tested on: rodent lifetime carcinogenesis bioassay, tumor incidence TD50; experiment: carcinogenic potency in animals, long-term in vivo studies, CPDB compilation (AID 1745844); details: rat; strain Fischer 344; females; in feed; site: any site (literature study); lesion: several types; types named in the paper; dosed 109 weeks; study length 109 weeks
Calls of active or inactive are those of the source. How the calls were made is not given here.
MEASURED_ATTRIBUTE: TD50

[[record]]
structure_smiles = "NC(=S)NNC(N)=S"
measured_attribute = "TD50"
reported = "842 mg/kg/day (inactive)"


====

test system: rodent lifetime carcinogenesis bioassay, tumor incidence TD50; test: carcinogenic potency in animals, long-term in vivo studies, CPDB compilation (AID 1745844); conditions: rat; strain Sprague-Dawley albino; both sexes; in feed; site: uterus; lesion: adenomatous endometrial polyp; dosed 104 weeks; study length 104 weeks
MEASURED_ATTRIBUTE: TD50

[[record]]
compound = "C#C[C@]1(OC(C)=O)CC[C@H]2[C@@H]3CCC4=CC(=O)CC[C@@H]4[C@H]3CC[C@@]21C (tested in a mixture with another compound)"
reported = "27.4 mg/kg/day"


====

tested on: rodent lifetime carcinogenesis bioassay, tumor incidence TD50; assay: carcinogenic potency in animals, long-term in vivo studies, CPDB compilation (AID 1745844); conditions: mouse; strain B6C3F1; males; inhaled; site: forestomach; lesion: squamous-cell carcinoma + squamous-cell papilloma; dosed 104 weeks; study length 104 weeks
MEASURED_ATTRIBUTE: TD50

[[record]]
structure_smiles = "C=CC(=C)Cl"
measured_attribute = "TD50"
reported = "291 mg/kg/day"


====

tested on: rodent lifetime carcinogenesis bioassay, tumor incidence TD50; experiment: carcinogenic potency in animals, long-term in vivo studies, CPDB compilation (AID 1745844); conditions: rat; strain Wistar; males; inhaled; site: liver; lesion: hepatocellular carcinoma; dosed 52 weeks; study length 52 weeks
MEASURED_ATTRIBUTE: TD50

[[record]]
structure_smiles = "C=CCl"
measured_attribute = "TD50"
reported = "1140 mg/kg/day"


====

tested on: rodent lifetime carcinogenesis bioassay, tumor incidence TD50; assay: carcinogenic potency in animals, long-term in vivo studies, CPDB compilation (AID 1745844); conditions: rat; strain F344/DuCrj; females; in drinking water; site: liver; lesion: hepatocellular adenoma; dosed 104 weeks; study length 105 weeks
MEASURED_ATTRIBUTE: TD50

[[record]]
structure_smiles = "C1COCCO1"
reported = "182 mg/kg/day"


====

tested on: rodent lifetime carcinogenesis bioassay, tumor incidence TD50; assay: carcinogenic potency in animals, long-term in vivo studies, CPDB compilation (AID 1745844); settings: rat; strain Fischer 344; females; by gavage; site: mammary gland; lesion: adenocarcinoma; dosed 37 weeks; study length 102 weeks
MEASURED_ATTRIBUTE: TD50

[[record]]
structure_smiles = "CCNC(=O)N(C=O)CCN(C)C"
measured_attribute = "TD50"
reported = "3.39 mg/kg/day"


====

test system: rodent lifetime carcinogenesis bioassay, tumor incidence TD50; assay: carcinogenic potency in animals, long-term in vivo studies, CPDB compilation (AID 1745844); conditions: mouse; strain B6C3F1; males; oral dosing; site: lung; lesion: adenoma; dosed 76 weeks; study length 76 weeks
Active and inactive are the calls of the source. How the calls were made is not given here.
MEASURED_ATTRIBUTE: TD50

[[record]]
structure_smiles = "CCN(CC)C(=S)[S-].CCN(CC)C(=S)[S-].[Zn+2]"
target_system = "rodent lifetime carcinogenesis bioassay, tumor incidence TD50"
reported = "46.2 mg/kg/day (inactive)"

[[record]]
structure_smiles = "NC(=S)Nc1cccc2ccccc12"
target_system = "rodent lifetime carcinogenesis bioassay, tumor incidence TD50"
reported = "1.27 mg/kg/day (inactive)"

[[record]]
structure_smiles = "O=S(=O)(Oc1ccc(Cl)cc1)c1ccc(Cl)cc1"
target_system = "rodent lifetime carcinogenesis bioassay, tumor incidence TD50"
reported = "869 mg/kg/day (inactive)"

[[record]]
structure_smiles = "O=C1c2ccccc2C(=O)N1SC(Cl)(Cl)Cl"
target_system = "rodent lifetime carcinogenesis bioassay, tumor incidence TD50"
reported = "156 mg/kg/day (inactive)"

[[record]]
structure_smiles = "CN(C)C(=O)Nc1ccc(Cl)c(Cl)c1"
target_system = "rodent lifetime carcinogenesis bioassay, tumor incidence TD50"
reported = "1150 mg/kg/day (inactive)"

[[record]]
structure_smiles = "S=C=Nc1ccccc1"
target_system = "rodent lifetime carcinogenesis bioassay, tumor incidence TD50"
reported = "128 mg/kg/day (inactive)"

